compounds and their reported glass transition temperature

Enquiry: Look up glass transition temperature of *CC(*)c1ccc([Si](C)(C)OC(C)C)cc1 (repeat unit) and report it.
Return: 180.00 °C

Enquiry: Look up glass transition temperature of *CCC([2H])C(*)([2H])C (repeat unit) and report it.
Return: -47.50 °C

Enquiry: Look up glass transition temperature of *c1ccc2c(c1)C(=O)N(c1cccc(Oc3cccc(N4C(=O)c5ccc(C(F)(F)C(F)(F)C(*)(F)F)cc5C4=O)c3)c1)C2=O (repeat unit) and report it.
Return: 312.00 °C

Enquiry: Look up glass transition temperature of *C(=O)c1ccc2c(c1)C(=O)N(c1ccc(Cc3ccc(Cc4ccc(N5C(=O)c6ccc(*)cc6C5=O)cc4)cc3)cc1)C2=O (repeat unit) and report it.
Return: 347.00 °C

Enquiry: Look up glass transition temperature of *O[Si](C)(C)O[Si](C)(C)C#Cc1ccc(C#C[Si](*)(C)C)cc1 (repeat unit) and report it.
Return: 104.00 °C

Enquiry: Look up glass transition temperature of *c1cccc(N/C=C/C(=O)c2cccc(C(=O)/C=C/Nc3cccc(S(*)(=O)=O)c3)c2)c1 (repeat unit) and report it.
Return: 215.00 °C

Enquiry: Look up glass transition temperature of *C(=O)Nc1ccc(S(=O)(=O)c2ccc(NC(=O)c3ccc4c(c3)C(=O)N(c3ccc(-c5sc(-c6ccc(N7C(=O)c8ccc(*)cc8C7=O)cc6)c(-c6ccccc6)c5-c5ccccc5)cc3)C4=O)cc2)cc1 (repeat unit) and report it.
Return: 340.00 °C

###

± gives the standard deviation of the reports.
molecules and their reported glass transition temperature
The reply should read as a number followed by its unit.

{"MOLECULE": "*c1cc(/N=N/c2ccc(OC)cc2)cc(*)c1O (repeat unit)", "glass transition temperature": "134.00 °C"}
{"MOLECULE": "*CCCOC(=O)c1ccc2cc(C(=O)O*)ccc2c1 (repeat unit)", "glass transition temperature": "88.00 °C"}
{"MOLECULE": "*CC(O)CN(CCO)CC(O)COc1ccc(C(C)(C)c2ccc(O*)cc2)cc1 (repeat unit)", "glass transition temperature": "87.10 °C"}
{"MOLECULE": "*c1ccc(Oc2ccc(-c3ccc(Oc4ccc(N5C(=O)c6cccc(Oc7c(Oc8cccc9c8C(=O)N(*)C9=O)cc(C(C)(C)C)cc7C(C)(C)C)c6C5=O)cc4)cc3)cc2)cc1 (repeat unit)", "glass transition temperature": "237.00 °C"}
{"MOLECULE": "*CCN(CCOC(=O)c1cccc(C(=O)O*)c1)c1ccccc1 (repeat unit)", "glass transition temperature": "60.00 °C"}

Enquiry: Look up glass transition temperature of *CC(C)(CCC)C(=O)O* (repeat unit) and report it.
Return: 1.90 °C

Enquiry: Look up glass transition temperature of *Nc1cccc(NC(=C(C#N)C#N)c2cccc(C(*)=C(C#N)C#N)c2)c1 (repeat unit) and report it.
Return: 278.00 °C

Enquiry: Look up glass transition temperature of *Oc1ccc(C(C)(C)c2ccc(OC(=O)c3ccc(C(*)=O)cc3)cc2)cc1 (repeat unit) [Poly(Bisphenol A terephthalate)] and report it.
Return: 199.92 ± 1.5 °C

Enquiry: Look up glass transition temperature of *Nc1ccc(NC(=O)Cc2cc(CC(*)=O)c(C)cc2C)cc1 (repeat unit) and report it.
Return: 208.00 °C

Enquiry: Look up glass transition temperature of *CCCC(=O)Nc1ccc(NC(=O)CCCN2C(=O)c3ccc(C(=O)c4ccc5c(c4)C(=O)N(*)C5=O)cc3C2=O)cc1 (repeat unit) and report it.
Return: 209.00 °C

Enquiry: Look up glass transition temperature of *c1ccc(C(=O)OCCCCCCCCOc2ccc(/C=C3\CC/C(=C\c4ccc(OCCCCCCCCOC(=O)c5ccc(-c6nnc(*)o6)cc5)cc4)C3=O)cc2)cc1 (repeat unit) and report it.
Return: 99.00 °C
